# Kd per record follows
study.target: HSV-1 glycoprotein D-Fc fusion protein (HSV-1) (UniProt Q69091)
experiment.summary: SPR Biacore T200, single cycle kinetics, G-Fc captured on anti-human IgG, 1:1 fit, second run
Response body: numeric value in nM, unit text excluded.

Q: Would you mind telling me what Kd value was observed for 3-G-41_M13R (VHH, not shown: small tags and cut ends) VHH: QVQLVESGGGLVQPGGSLRLSCAASGFSFSFKNYAMSWVRQAPGKGLEWVSTMSGGGGDIKYADSVKGRFTISRDNAKNTLYLQMNSLKPEDTAVYYCAKGWITTDQFTNTPRGQGTQVTVSS ?
Ans: 0.092
